- System: MDR S. aureus
- assay_method_text: microbe, parasite or virus in culture
- assay_setup: CAMHB plus 0.2% bovine serum albumin and 0.01% acetic acid; values marked * in Table 2
Ends that are not written are not given here.
# strict inequality: MIC in 0.2% albumin and 0.01% AcOH added CLSI standard condition, MDR S. aureus < 5 µM yields rule met, everything else yields rule not met

Worked cases, answers included:
RWLRWWIRV-NH2 [HLWCopW29-1]	rule not met
RLWWRWIVR-NH2 [HLWCopW29-4]	rule not met
GVLVWFRRR-NH2 [Ptg C-ter 2]	rule not met

Exam item: For WLVWIWRRR-NH2 [LWCopW29] , is the recorded MIC in 0.2% albumin and 0.01% AcOH added CLSI standard condition, MDR S. aureus below the cut-off of 5 µM?
Marked response: rule met

Exam item: API: query returns whether the substance falls strictly under 5 µM in MIC in 0.2% albumin and 0.01% AcOH added CLSI standard condition, MDR S. aureus. Query: GVWVLFRRR-NH2 [Ptg C-ter 3]
Marked response: rule not met

Exam item: I'd appreciate it if you could check whether WLLLLWRRR-NH2 [AcWL-3] has MIC in 0.2% albumin and 0.01% AcOH added CLSI standard condition, MDR S. aureus smaller than 5 µM.
Marked response: rule met

###

- System: human red blood cells
- assay_method_text: Hemolytic activity
- Format: cell-based
- assay_setup: red cells of human, 18 h, 25
Square brackets hold non-standard residues; d marks the D form. Peptide text beside a SMILES is read from it.
recorded_endpoint: Hemolysis percent, 25 μM (%)
Supply the numeric figure in %, leaving out any unit text.

The cases that follow already have their Hemolysis percent, 25 μM on record.
CC(C)[C@@H](NC(=O)[C@H](N)Cc1c[nH]c2ccccc12)C(=O)N[C@@H](C(=O)N[C@H](Cc1c[nH]c2ccccc12)C(=O)N[C@@H](C(=O)N[C@@H](C(=O)N[C@H](Cc1c[nH]c2ccccc12)C(=O)N[C@H](CCCNC(=N)N)C(=O)N[C@H](CCCNC(=N)N)C(=O)N[C@H](CCCNC(=N)N)C(N)=O)C(C)C)C(C)C)C(C)C [WCopW42] (H-[dW][dV][dV][dW][dV][dV][dW][dR][dR][dR]-NH2)	7.14
CC[C@@H](C)[C@@H](NC(=O)[C@@H](Cc1c[nH]c2ccccc12)NC(=O)[C@@H](CC(C)C)NC(=O)[C@@H](CC(C)C)NC(=O)[C@H](N)Cc1c[nH]c2ccccc12)C(=O)N[C@H](C)C(=O)N[C@H](CC(C)C)C(=O)N[C@H](CCCNC(=N)N)C(=O)N[C@H](CCCCN)C(=O)N[C@H](CCCCN)C(N)=O [WCopW7] (H-[dW][dL][dL][dW][dI][dA][dL][dR][dK][dK]-NH2)	7.25

// moving on: another record for Hemolysis percent, 25 μM
Exam item: I would be grateful if you could share the reported Hemolysis percent, 25 μM for CC[C@@H](C)[C@@H](NC(=O)[C@@H](Cc1c[nH]c2ccccc12)NC(=O)[C@H](NC(=O)[C@@H](CC(C)C)NC(=O)[C@H](N)Cc1c[nH]c2ccccc12)C(C)C)C(=O)N[C@H](Cc1c[nH]c2ccccc12)C(=O)N[C@H](CCCNC(=N)N)C(=O)N[C@H](CCCNC(=N)N)C(=O)N[C@H](CCCCN)C(=O)N[C@H](CCCNC(=N)N)C(N)=O [WCopW28] (H-[dW][dL][dV][dW][dI][dW][dR][dR][dK][dR]-NH2) .
Marked response: 2.33
